Origin of the recorded values: PubChem BioAssay AID1159580

PROTOCOL DESCRIPTION: chemical genetic growth profiling, strain panel (AID 1159580);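 also: tested at 20 µM; growth read once vehicle control cultures reached saturation at 30 °C; 1 = growth at the plate median or of vehicle wells; lower values mean less growth of the strain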
DETAILS: S. cerevisiae deletion strains, growth OD, locus YLR357W, strain rsc2, hits give low values
Among all 5,500 compounds or so, about 2,000 (36%) were called active. Not shown: some 18% with an inconclusive outcome. The list shows a part of the results.
PROPERTY NAME: normalized growth

- COMPOUND: "O=C(O)c1cc(=O)c2ccccc2o1"
  PROPERTY NAME: "normalized growth"
  READOUT NUMBER: 0.975
- COMPOUND: "O=C1CN2Cc3c(ccc(Cl)c3Cl)N=C2N1"
  PROPERTY NAME: "normalized growth"
  READOUT NUMBER: 0.925
- COMPOUND: "CC(C)c1ccc2c(c1O)CC[C@H]1C3=C(CC[C@]21C)C(=O)OC3"
  PROPERTY NAME: "normalized growth"
  READOUT NUMBER: 0.991
- COMPOUND: "Cn1c(=O)c2[nH]c(C3CCCC3)nc2n(C)c1=O"
  PROPERTY NAME: "normalized growth"
  READOUT NUMBER: 0.954
- COMPOUND: "O=c1c(-c2cc(O)c(O)c(O)c2)coc2cc(O)c(O)c(O)c12"
  PROPERTY NAME: "normalized growth"
  READOUT NUMBER: 0.753
- COMPOUND: "CCC(/C=C/[C@@H](C)[C@H]1CCC2C3CC=C4C[C@@H](O)CC[C@]4(C)C3CC[C@@]21C)C(C)C (stereo partly specified)"
  PROPERTY NAME: "normalized growth"
  READOUT NUMBER: 1.03
- COMPOUND: "O=C(/C=C/c1ccccc1)c1ccc(O)cc1"
  PROPERTY NAME: "normalized growth"
  READOUT NUMBER: 0.46
- COMPOUND: "O=C(O)c1cn(-c2ccc(F)cc2)c2cc(N3CCNCC3)c(F)cc2c1=O"
  PROPERTY NAME: "normalized growth"
  READOUT NUMBER: 0.958
- COMPOUND: "CC(C(=O)O)[C@H]1CCC2C3CC=C4C[C@@H](O)CC[C@]4(C)C3CC[C@@]21C (stereo partly specified)"
  PROPERTY NAME: "normalized growth"
  READOUT NUMBER: 1.1
- COMPOUND: "CC(=O)[C@H]1CCC2C3CC=C4C[C@@H](OC(=O)CCC(=O)O)CC[C@]4(C)C3CC[C@@]21C (stereo partly specified)"
  PROPERTY NAME: "normalized growth"
  READOUT NUMBER: 0.989
- COMPOUND: "C[C@@H]1CC[C@@]2(OC1)OC1C(O)C3C4CC[C@H]5C[C@H](O[C@@H]6O[C@H](CO)[C@H](O[C@@H]7O[C@H](CO)[C@@H](O)[C@H](O[C@@H]8OC[C@@H](O)[C@H](O)[C@H]8O)[C@H]7O[C@@H]7O[C@H](CO)[C@H](O)[C@H](O[C@@H]8O[C@H](CO)[C@@H](O)[C@H](O)[C@H]8O)[C@H]7O)[C@H](O)[C@H]6O)[C@H](O)C[C@]5(C)C4CC[C@]3(C)C1[C@@H]2C (stereo partly specified)"
  PROPERTY NAME: "normalized growth"
  READOUT NUMBER: 0.875
- COMPOUND: "CCN1CCN(c2cc3c(cc2F)c(=O)c(C(=O)O)cn3C2CC2)CC1"
  PROPERTY NAME: "normalized growth"
  READOUT NUMBER: 0.994
- COMPOUND: "CN(N=O)C(=O)N[C@@H]1[C@@H](O)[C@H](O)[C@@H](CO)O[C@@H]1O"
  PROPERTY NAME: "normalized growth"
  READOUT NUMBER: 0.958
- COMPOUND: "CC(=O)O[C@H]1C[C@H](O[C@H]2[C@@H](O)C[C@H](O[C@H]3[C@@H](O)C[C@H](O[C@H]4CC[C@@]5(C)C(CCC6C5C[C@@H](O)[C@]5(C)[C@@H](C7=CC(=O)OC7)CC[C@]65O)C4)O[C@@H]3C)O[C@@H]2C)O[C@H](C)[C@H]1O[C@@H]1O[C@H](CO)[C@@H](O)[C@H](O)[C@H]1O (stereo partly specified)"
  PROPERTY NAME: "normalized growth"
  READOUT NUMBER: 0.993
- COMPOUND: "Cc1cc2cc3c(C)cc(=O)oc3c(C)c2o1"
  PROPERTY NAME: "normalized growth"
  READOUT NUMBER: 1.1
- COMPOUND: "CC(=O)[C@H]1CCC2C3CC=C4C[C@@H](O)CC[C@]4(C)C3CC[C@@]21C (stereo partly specified)"
  PROPERTY NAME: "normalized growth"
  READOUT NUMBER: 1.09

* * *

PROTOCOL DESCRIPTION: chemical genetic growth profiling, strain panel (AID 1159580);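 also: tested at 20 µM; growth read once vehicle control cultures reached saturation at 30 °C; 1 = growth at the plate median or of vehicle wells; lower values mean less growth of the strain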
DETAILS: S. cerevisiae deletion strains, growth OD, locus YDR318W, strain mcm21, hits give low values
The whole screen tested about 5,500 compounds, of which about 2,000 (36%) were called active. Another 18% or so got no clear call; they are omitted. The list shows a part of the results.
Reported normalized growth values for a set of compounds

- COMPOUND: "CN(C)CC/C=C1/c2ccccc2COc2ccccc21"
  normalized growth: 1.02
- COMPOUND: "COc1ccc2c(=O)cc(-c3ccccc3OC)oc2c1"
  normalized growth: 0.866
- COMPOUND: "CCCCCCCCCCCCCCCC[n+]1ccccc1"
  normalized growth: 0.0596
- COMPOUND: "COC(=O)C[C@H]1C(C)(C)C(=O)[C@@H]2CC3=C4CC(OC)O[C@@H](c5ccoc5)[C@]4(C)CCC3[C@@]1(C)C2=O (some centres not stated)"
  normalized growth: 0.998
- COMPOUND: "CC(=O)Oc1cc(OC(C)=O)c2c(=O)c(-c3ccccc3)coc2c1"
  normalized growth: 0.982
- COMPOUND: "O=C1c2c(O)ccc(O)c2C(=O)c2c(NCCNCCO)ccc(NCCNCCO)c21"
  normalized growth: 0.982
- COMPOUND: "CCCCCCc1ccc(O)cc1O"
  normalized growth: 0.794
- COMPOUND: "O=c1c(-c2ccccc2)coc2cc(O)cc(O)c12"
  normalized growth: 0.819
- COMPOUND: "N[C@@H]1CONC1=O"
  normalized growth: 1.02
- COMPOUND: "O=C(O)c1nc2cc(Cl)c(Cl)cc2[nH]c1=O"
  normalized growth: 0.994
- COMPOUND: "COC(=O)C1=C(C)NC(C)=C(C(=O)OCCN(C)Cc2ccccc2)C1c1cccc([N+](=O)[O-])c1 (configuration not stated)"
  normalized growth: 0.944
- COMPOUND: "CC(N)Cc1ccc(O)cc1 (configuration not stated)"
  normalized growth: 1.03
- COMPOUND: "CC1(C)O[C@@H]2CC3C4C[C@H](F)C5=CC(=O)C=C[C@]5(C)[C@@]4(F)[C@@H](O)C[C@]3(C)[C@]2(C(=O)CO)O1 (some centres not stated)"
  normalized growth: 1.02
- COMPOUND: "COCCOC(=O)C1=C(C)NC(C)=C(C(=O)OC(C)C)C1c1cccc([N+](=O)[O-])c1 (configuration not stated)"
  normalized growth: 1.01
- COMPOUND: "Cc1cc(=O)c2c(o1)-c1c(cc(O)c(O)c1C(=O)O)OC2"
  normalized growth: 1.01
- COMPOUND: "O=c1c2ccccc2[se]n1-c1ccccc1"
  normalized growth: 0.0683
- COMPOUND: "CCCCCCCCCc1ccc(O)cc1"
  normalized growth: 0.58
- COMPOUND: "Nc1nc(N)c2nc(-c3ccccc3)c(N)nc2n1"
  normalized growth: 1
- COMPOUND: "O=c1c(-c2ccc(O)cc2)coc2cc(O)cc(O)c12"
  normalized growth: 1.02
- COMPOUND: "C[C@@H]1CC[C@@]2(OC1)OC1C(O)C3C4CC[C@H]5C[C@H](O[C@@H]6O[C@H](CO)[C@H](O[C@@H]7O[C@H](CO)[C@@H](O)[C@H](O[C@@H]8OC[C@@H](O)[C@H](O)[C@H]8O)[C@H]7O[C@@H]7O[C@H](CO)[C@H](O)[C@H](O[C@@H]8O[C@H](CO)[C@@H](O)[C@H](O)[C@H]8O)[C@H]7O)[C@H](O)[C@H]6O)[C@H](O)C[C@]5(C)C4CC[C@]3(C)C1[C@@H]2C (some centres not stated)"
  normalized growth: 0.0561
- COMPOUND: "CC(=O)O[C@H]1C[C@@H](O)C(C)(C)C2C[C@@H](OC(C)=O)[C@]3(C)C(CC[C@@]4(C)[C@H](c5ccoc5)OC(=O)C5OC543)[C@]21C (some centres not stated)"
  normalized growth: 0.984
- COMPOUND: "NCCc1ccc(O)c(O)c1"
  normalized growth: 0.988
- COMPOUND: "NS(=O)(=O)c1cc2c(cc1C(F)(F)F)NCNS2(=O)=O"
  normalized growth: 0.986
- COMPOUND: "COc1c(O)cc2c(-c3ccccc3)cc(=O)oc2c1OC"
  normalized growth: 0.973
- COMPOUND: "CCCCC1C(=O)N(c2ccccc2)N(c2ccccc2)C1=O"
  normalized growth: 1.01
- COMPOUND: "Cn1nnnc1SCC1=C(C(=O)O)N2C(=O)C(NC(=O)C(O)c3ccccc3)C2SC1 (configuration not stated)"
  normalized growth: 0.996
- COMPOUND: "O=C1CCc2cc(OCCCCc3nnnn3C3CCCCC3)ccc2N1"
  normalized growth: 1
- COMPOUND: "CCn1cc(C(=O)O)c(=O)c2cc(F)c(N3CCNCC3)cc21"
  normalized growth: 0.995
- COMPOUND: "COc1c(O)cccc1O"
  normalized growth: 1.03
- COMPOUND: "Cc1cc(=O)c2c(O)c3c(cc2o1)OC(C)(C)CC3"
  normalized growth: 0.954
- COMPOUND: "CCN(CCCCOC(=O)c1ccc(OC)c(OC)c1)C(C)Cc1ccc(OC)cc1 (configuration not stated)"
  normalized growth: 0.999
- COMPOUND: "COc1cc(O)c2c(=O)c(-c3ccc(O)cc3)coc2c1"
  normalized growth: 0.886
- COMPOUND: "Cc1cc2cc3c(C)cc(=O)oc3c(C)c2o1"
  normalized growth: 0.94
- COMPOUND: "OC1C(O)C(O)C(O)C(O)C1O (configuration not stated)"
  normalized growth: 0.992
- COMPOUND: "NCC(=O)CCC(=O)O"
  normalized growth: 0.978
- COMPOUND: "NCCc1cccc(O)c1"
  normalized growth: 0.983
- COMPOUND: "CC(=O)O[C@H]1C[C@@]2(C)[C@H](c3ccoc3)OC(=O)[C@H]3O[C@]32[C@@]2(C)C1[C@]1(C)C(C[C@H]2OC(C)=O)C(C)(C)[C@H](OC(C)=O)C[C@@H]1OC(C)=O (some centres not stated)"
  normalized growth: 0.973
- COMPOUND: "COc1cccc(-c2cc(=O)c3cc(OC)ccc3o2)c1"
  normalized growth: 1.05
- COMPOUND: "CC1=CCc2c(cc3oc(C)cc(=O)c3c2O)OC1"
  normalized growth: 0.885
- COMPOUND: "CN(C)CCC=C1c2ccccc2C=Cc2ccccc21"
  normalized growth: 0.982
- COMPOUND: "COC(=O)C1=C(C)NC(C)=C(C(=O)OC)C1c1ccccc1[N+](=O)[O-]"
  normalized growth: 0.827
- COMPOUND: "CC(=O)O[C@@H]1CC2C(C)(C)CCC(=O)[C@]2(C)C2CC[C@@]3(C)[C@H](c4ccoc4)OC(=O)C4OC43[C@@]21C (some centres not stated)"
  normalized growth: 0.993
